System: Rabbit Psoas myofibrils (skeletal myosin ATPase)
measurement.protocol: Myofibril ATPase assay, rabbit psoas (skeletal) myofibrils
Type: biochemical
measurement.context: Y75 value (no ‡ mark); rabbit psoas myofibrils
recorded.metric: Skeletal EC25 (µM)

(A) Cc1c(CC(=O)N[C@H]2COCc3cc(C#N)cnc32)c(=O)[nH]c2ccc(F)cc12 [compound 1057]
(B) Cc1c(CC(=O)N[C@H](C)c2ncc(C#N)cc2F)c(=O)[nH]c2cccc(C#N)c12 [compound 1080]
(C) C[C@H](NC(=O)Cc1cc2c(F)c(F)ccc2[nH]c1=O)c1ncc(C#N)cc1F [compound 36]
Exercise: Order the records so the highest Skeletal EC25 appears first and the lowest last. # the answer lists labels in the order requested
Key: A, B, C
(A: 21 µM, B: 0.12 µM, C: 0.01 µM)

(I) C[C@H](NC(=O)[C@@H](C)c1c(C(F)(F)F)c2cc(F)ccc2[nH]c1=O)c1ccc(F)cc1F (single isomer, unassigned) [compound 99]
(II) C[C@@H](NC(=O)Cc1cc2c(F)cc(F)cc2[nH]c1=O)c1ncc(C#N)cc1F [compound 1137]
Exercise: Recorded Skeletal EC25 values differ for I and II ; which one is higher? # respond with the chosen item's label
Key: II
(II: 5.34 µM, I: 0.09 µM)

(A) Cc1c(C2(C(=O)N[C@@H](C)c3ncc(C#N)cn3)CC2)c(=O)[nH]c2ccc(F)cc12 (single isomer, unassigned) [compound 2591]
(B) C[C@H](NC(=O)Cc1c(C2CC2)c2cc(C#N)ccc2[nH]c1=O)c1ncc(C#N)cc1F [compound 1152]
Exercise: Min Skeletal EC25? A | B # respond with the chosen item's label
Key: B
(B: 3.82 µM, A: 100.00 µM)

(A) Cc1c(C2(C(=O)N[C@H](C)c3ncc(C#N)cn3)CC2)c(=O)[nH]c2cccc(C#N)c12 (single isomer, unassigned) [compound 2543]
(B) Cc1c(CC(=O)N[C@@H](C)c2ccc(C#N)cn2)c(=O)[nH]c2ccc(F)c(C#N)c12 [compound 50]
(C) Cc1c(C2(C(=O)N[C@@H](C)c3ncc(C#N)cc3F)CC2)c(=O)[nH]c2ccc(F)cc12 (single isomer, unassigned) [compound 2597]
Exercise: Sort (3 compounds) by Skeletal EC25: min first. # the answer lists labels in the order requested
Key: B, C, A

(I) Cc1c(C(F)(F)C(=O)N[C@@H](C)c2ncc(C#N)cc2F)c(=O)[nH]c2cccc(F)c12 (single isomer, unassigned) [compound 2533]
(II) O=C(Cc1cc2c(F)c(F)ccc2[nH]c1=O)N1CC2CC1c1ccccc12 (stereo not shown) [compound 4504]
Exercise: Recorded Skeletal EC25 values differ for I and II ; which one is higher? # respond with the chosen item's label
Key: II
